I'd be grateful if you could share measured GI50 for these entries.
# System: U-251
# test-description: NCI tumour cell line growth inhibition, 48 h
Calls of active or inactive are those of the source. Cut-off read from the data, not from the text of the source: active = GI50 up to about 1.1 µM and inactive = higher.

**Query** I would be grateful if you could share the reported GI50 for N#C/C(=C\c1cc(F)cc(F)c1)c1ccccn1 .
**Result** 16.8 µM (inactive)

**Query** I would be grateful if you could share the reported GI50 for O=C(Cc1ccccc1)NS(=O)(=O)c1ccccc1 .
**Result** > 100 µM (inactive)

**Query** I would be grateful if you could share the reported GI50 for CC1(C)CCC(C)(C)C1C(=O)NC(O)C(=O)O (configuration not stated) .
**Result** > 100 µM (inactive)

**Query** I would be grateful if you could share the reported GI50 for CCC(C)CC(C)CC(C)/C=C(\C)C1=C(C)CC(C)(O)O1 (configuration not stated) .
**Result** 61.8 µM (inactive)

**Query** I would be grateful if you could share the reported GI50 for O=c1c2ccccc2nc(-c2ccccc2Cl)n1NCC1(O)OCC(O)C(O)C1O (configuration not stated) .
**Result** > 100 µM (inactive)

**Query** I would be grateful if you could share the reported GI50 for O=C(Nc1ccc(Cl)cc1)c1cc(S(=O)(=O)Nc2n[nH]c(=O)[nH]2)c(SSc2cc(Cl)c(C(=O)Nc3ccc(Cl)cc3)cc2S(=O)(=O)Nc2n[nH]c(=O)[nH]2)cc1Cl .
**Result** > 100 µM (inactive)

**Query** I would be grateful if you could share the reported GI50 for COC(=O)[C@@]12OC[C@]34C([C@@H](O)C1O)[C@@]1(C)CC(=O)C(O)=C(C)C1C[C@H]3OC(=O)[C@H](OC(=O)/C=C(/c1ccccc1)C(F)(F)F)[C@H]42 (some centres not stated) .
**Result** 4.41 µM (inactive)
